System: Y1 binding to purified glycocalicin
TEST DESCRIPTION: ELISA: effect of synthetic GPIbα peptides on Y1 binding to purified glycocalicin
Set-up: species or system human
CONDITION DESCRIPTION: peptide 25 μM; 0.25 μg/well Y1
Non-standard residues stand in square brackets, D forms with d. No end group written: not given here. sY = N[C@@H](Cc1ccc(OS(=O)(=O)O)cc1)C(=O)O
METRIC NAME: Residual Binding of Y1 (% of baseline)

substance="GDEGDTDLY*DY*Y*P (GDEGDTDL[sY]D[sY][sY]P) [P-3-S, residues 268-280 of GPIbα, Y* sulfated tyrosine]" data_value="21 % of baseline"
substance="REEGRQHFFLLEGRSSYS [negative control peptide, reference compound]" data_value="89 % of baseline"
substance="GDEGDTDLY*DY*Y*PEEDTE (GDEGDTDL[sY]D[sY][sY]PEEDTE) [P-1-S, residues 268-285 of GPIbα, Y* sulfated tyrosine]" data_value="25 % of baseline"
substance="TDLY*DY*Y*PEEDTE (TDL[sY]D[sY][sY]PEEDTE) [P-2-S, residues 273-285 of GPIbα, Y* sulfated tyrosine]" data_value="15 % of baseline"
substance="GDEGDTDLYDYYPEEDTE [P-1, residues 268-285 of GPIbα, non-sulfated]" data_value="71 % of baseline"

Numbers sourced from patent US20040002450A1.
